- runDescription: Oral pharmacokinetics in male Sprague Dawley rats
- Format: in vivo
- recordedConditions: rat, serum, 250 mg/kg
parameterMeasured: CL/F (mL/min/kg)
Numeric answer only, unit mL/min/kg assumed.

Look up CL/F for this molecule: `COc1c(-c2ccc(O)c(O)c2)oc2cc3c(c(O)c2c1=O)OCO3`
213

Proceeding to the next molecule to report its CL/F.
Look up CL/F for this molecule: `COc1c(O)cc2oc(-c3ccc(O)c(O)c3)c(OC)c(=O)c2c1O`
23.3

* * *

- runDescription: Oral pharmacokinetics in male Sprague Dawley rats
- Type: in vivo
- recordedConditions: rat, serum, 250 mg/kg
Each item that follows carries a reported Tmax.
Numeric answer only, unit h assumed.

Look up Tmax for this compound: COc1c(-c2ccc(O)c(O)c2)oc2cc3c(c(O)c2c1=O)OCO3 [Compound K007]
2

Continuing:
Look up Tmax for this compound: COc1c(O)cc2oc(-c3ccc(O)c(O)c3)c(OC)c(=O)c2c1O [Compound K008]
2
